molecular target: GCase (Homo sapiens); construct: endogenous in cells; test: activation of GCase in a live cell PFB assay in HELA cells
pEC50: −log10 of the molar value.
value type: pEC50

Example entries and their recorded answers appear below.
O=C(c1nnc(C(F)(F)c2ccccc2)o1)N1CCCC(COc2ccccc2)C1 (centres unmarked) [Compound 51]: < 4.00
CC(C)c1cc(C(=O)N2C[C@@H]3[C@@H](COc4cccc(C(F)(F)F)n4)[C@@H]3C2)[nH]n1 [Compound 75]: 4.30 to 5.00
COc1ccc(OCC2CCN(C(=O)c3cccc(C#CC(C)(C)O)c3)CC2)cc1 [Compound 420]: 4.30 to 5.00
C[C@H](Oc1ccccc1C(F)(F)F)[C@@H]1CCCN(c2cnc3cnn(CC(F)F)c3n2)C1 [Compound 266b]: 4.30 to 5.00
O=C(Cc1csc(-c2ccccc2)n1)N1CCC(Oc2cccc(C(F)(F)F)n2)CC1 [Compound 402]: 4.30 to 5.00
COc1ccc(OCC2CCN(Cc3cnc(C)[nH]3)CC2)cc1 [Compound 444]: < 4.00
C[C@H]1C[C@@H](COc2cccnc2C(F)(F)F)CN(c2cnc3cnn(CC4COC4)c3n2)C1 (single isomer, unassigned) [Compound 233b]: > 5.00

Consider the additional compound presented here.
Memo: COc1ccc(OCC2CCN(c3cc(C4CC(N)C4)ncn3)CC2)cc1 (centres unmarked) [Compound 482] , reported pEC50: < 4.00

###

Kindly state pEC50 for each of the entries shown.
Target: GCase (Homo sapiens)
Construct: endogenous in cells
Sequence (P04062 40-536): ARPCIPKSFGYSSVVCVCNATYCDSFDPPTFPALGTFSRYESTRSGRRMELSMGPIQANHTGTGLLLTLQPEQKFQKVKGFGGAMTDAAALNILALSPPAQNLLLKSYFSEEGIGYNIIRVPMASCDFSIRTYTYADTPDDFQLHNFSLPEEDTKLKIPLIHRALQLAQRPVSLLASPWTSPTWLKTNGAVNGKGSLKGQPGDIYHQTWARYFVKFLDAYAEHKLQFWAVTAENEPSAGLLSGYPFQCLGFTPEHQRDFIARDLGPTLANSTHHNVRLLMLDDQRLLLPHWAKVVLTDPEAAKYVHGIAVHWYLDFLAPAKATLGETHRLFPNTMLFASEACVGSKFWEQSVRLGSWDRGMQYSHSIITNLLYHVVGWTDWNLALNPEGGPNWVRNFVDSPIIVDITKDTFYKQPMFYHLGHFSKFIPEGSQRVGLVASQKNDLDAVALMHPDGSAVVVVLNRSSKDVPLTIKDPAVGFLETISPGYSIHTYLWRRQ
Experiment: activation of GCase in a live cell PFB assay in HELA cells
pEC50: −log10 of the molar value.

Fc1cnc(OC[C@@H]2[C@H]3CN(c4cnc5cnn(C6COC6)c5n4)C[C@@H]23)c(F)c1 [Compound 120]: 4.00 to 4.30
O=C(c1ccc2cc[nH]c2c1)N1CCC(Oc2ccncc2C(F)(F)F)CC1 [Compound 318]: 4.30 to 5.00
FC(F)Cn1ncc2ncc(N3CCC(Oc4cc(C(F)(F)F)ccn4)CC3)nc21 [Compound 326]: 4.30 to 5.00

For the 5 compounds below, give their pEC50 values.
1. Cc1cc(C(=O)N2CCCC(COc3ccccc3)C2)c(C)n1C(C)C (stereo not shown) [Compound 170]
2. FC(F)Cn1ncc2ncc(N3CC4CC4(COc4cccnc4C(F)(F)F)C3)nc21 (stereo not shown) [Compound 260]
3. N#Cc1cccnc1OC1CCN(C(=O)C2(c3ccc(Cl)cc3)CCCC2)CC1 [Compound 370]
4. FC(F)(F)COCCn1ncc2ncc(N3CCCC(COc4cccnc4C(F)(F)F)C3)nc21 (stereo not shown) [Compound 248]
5. CC1CCC(COc2cccnc2C(F)(F)F)CN1c1cnc2cnn(CC(F)F)c2n1 (stereo not shown) [Compound 31]

-- reply
["4.30 to 5.00", "4.30 to 5.00", "> 5.00", "> 5.00", "> 5.00"]

###

molecular target: GCase (Homo sapiens, UniProt P04062); construct: endogenous in cells; experiment: activation of GCase in a live cell PFB assay in HELA cells
pEC50: −log10 of the molar value.
value type: pEC50

FC(F)Cn1ncc2ncc(N3CCC(COc4ccncc4C(F)(F)F)CC3)nc21: > 5.00

For the 7 molecules below, give their pEC50 values.
1. O=C(C1C[C@@H]2C[C@@H](C1)CC(F)(F)C2)N1CCCC(COc2ccccc2)C1 (some centres unmarked)
2. C[C@H](Oc1cccnc1C(F)(F)F)[C@H]1CCCN(c2cncc(-c3nncs3)n2)C1 [Compound 45a]
3. O=C(c1cnn[nH]1)N1CCC(COc2ccc3c(c2)CCC3)CC1
4. Fc1cc(F)cc(OC[C@@H]2[C@H]3CN(c4cnc5cnn(C6COC6)c5n4)C[C@@H]23)c1
5. O=C(N1CCC(COc2cccc(C(F)(F)F)n2)C1)C1(c2ccccc2)CCOCC1 (centres unmarked)
6. COc1ccc(OCC2CCN(Cc3noc(C4CCCO4)n3)CC2)cc1 (centres unmarked)
7. CCn1cc(-c2cccc(C(=O)N3CCC(OCc4ccccc4)CC3)c2)cn1

-- reply
4.30 to 5.00
> 5.00
4.00 to 4.30
4.30 to 5.00
> 5.00
4.00 to 4.30
4.00 to 4.30

For the 7 molecules below, give their pEC50 values.
1. FC(F)Cn1ncc2ncc(N3CCC(Oc4cccc(C(F)(F)F)n4)CC3)nc21
2. c1ccc(OCC2CCN(c3cnc4ccccc4n3)CC2)cc1
3. CC(C)c1cc(C(=O)N2C[C@@H](C)C[C@H](COc3cccnc3C(F)(F)F)C2)[nH]n1 [Compound 234b]
4. O=C(c1ccn2c1CSCC2)N1CCCC(COc2ccccc2)C1 (centres unmarked)
5. FC(F)(F)c1cccc(OC[C@@H]2[C@H]3CN(c4cncc(-c5nncs5)n4)C[C@@H]23)n1
6. COc1ccc(OCC2CCN(Cc3ccncc3C)CC2)cc1
7. O=C(N1CCCC(COc2ncccc2C(F)(F)F)C1)N1CCOC(Cc2ccccc2)C1 (centres unmarked)

-- reply
["4.30 to 5.00", "4.30 to 5.00", "4.30 to 5.00", "4.00 to 4.30", "> 5.00", "< 4.00", "4.00 to 4.30"]

For the 2 molecules below, give their pEC50 values.
1. O=C(Cc1csc(-c2ccccc2)n1)N1CCC(Oc2ncccc2C(F)(F)F)CC1
2. FC(F)Cn1ncc2ncc(N3C[C@@H]4[C@@H](COc5ccnc(C(F)(F)F)c5)[C@@H]4C3)nc21

-- reply
["4.30 to 5.00", "4.30 to 5.00"]

###

Kindly state EC50 for each of the entries shown.
molecular target: GCase (Homo sapiens, UniProt P04062); construct: endogenous in cells; assay: activation of GCase in a live cell PFB assay in HELA cells

Example entries and their recorded answers appear below.
O=C(Cc1csc(-c2ccccc2)n1)N1CCC(Oc2ccnc(C(F)(F)F)c2)CC1 [Compound 399]: 10 to 50 µM
Cc1ccccc1OCC1CCCN(C(=O)[C@@H]2CCc3nccc(=O)n32)C1 (stereo partly shown) [Compound 280]: > 100 µM
O=C(c1ccc(F)c(OC(F)(F)F)c1)N1CCCC(COc2ccccc2)C1 (stereo not shown) [Compound 217]: 10 to 50 µM

For the 8 molecules below, give their EC50 values.
1. O=C(c1nnc(C2(c3ccccc3)CCOC2)o1)N1CCCC(COc2ccccc2)C1 (stereo not shown) [Compound 76]
2. Cc1cnc2c(C(=O)N3CCCC(COc4ccccc4C)C3)c(-c3ccccc3)n(C)c2n1 (stereo not shown) [Compound 257]
3. C[C@H]1C[C@H](COc2cccnc2C(F)(F)F)CN(c2cnc3cnn(CC(F)F)c3n2)C1 [Compound 100]
4. COc1ccc(OCC2CCN(C(=O)c3c(C)cccc3OC)CC2)cc1 [Compound 481]
5. CC1CCC(COc2cccnc2C(F)(F)F)CN1C(=O)c1ccc2cc[nH]c2c1 (stereo not shown) [Compound 128]
6. FC(F)Cn1ncc2ncc(N3C[C@@H]4[C@@H](COc5ccc(C(F)(F)F)cn5)[C@@H]4C3)nc21 [Compound 61]
7. CC(=O)N1CCC(c2cc3ncc(N4CCCC(COc5cccnc5C(F)(F)F)C4)nc3n2C)CC1 (stereo not shown) [Compound 73]
8. O=C(Cc1ccc(OC(F)F)c(F)c1)N1CCCC(COc2ccccc2)C1 (stereo not shown) [Compound 198]

-- reply
1. 10 to 50 µM
2. 50 to 100 µM
3. 10 to 50 µM
4. 10 to 50 µM
5. 10 to 50 µM
6. 10 to 50 µM
7. < 10 µM
8. 10 to 50 µM

For the 3 molecules below, give their EC50 values.
1. COc1ccc(OCC2CCN(Cc3cscn3)CC2)cc1 [Compound 477]
2. COc1cccc(C(C(=O)N2CCCC(COc3ccccc3)C2)C(C)C)c1 (stereo not shown) [Compound 141]
3. Cn1c(-c2ccc(F)cc2)nc2ncc(C(=O)N3C[C@@H]4[C@@H](COc5cccnc5C(F)(F)F)[C@@H]4C3)nc21 [Compound 224]

-- reply
1: < 10 µM; 2: 10 to 50 µM; 3: 10 to 50 µM

For the 4 molecules below, give their EC50 values.
1. CO[C@@H]1CCN(c2cnc3cnn(CC(F)F)c3n2)C[C@@H]1COc1cccnc1C(F)(F)F [Compound 298a]
2. COc1ccc(OCCCC(=O)N2CCCC(COc3ccccc3)C2)cc1 (stereo not shown) [Compound 12]
3. O=C(Cc1csc(-c2ccccc2)n1)N1CCC(COCc2ccccc2)CC1 [Compound 335]
4. NCCn1cc(C(=O)N2CCC(COc3ccc4c(c3)CCC4)CC2)nn1 [Compound 440]

-- reply
1. 50 to 100 µM
2. 10 to 50 µM
3. 10 to 50 µM
4. > 100 µM

For the 8 molecules below, give their EC50 values.
1. C[C@H]1CC[C@@H](COc2cccnc2C(F)(F)F)CN1c1cnc2cnn(CC(F)F)c2n1 [Compound 77]
2. O=C(Cc1csc(-c2ccccc2)n1)N1CCC(Oc2cccnc2C(F)(F)F)CC1 [Compound 400]
3. CCn1c(=O)n(CC)c2nc(N3C[C@@H](C)C[C@@H](COc4cccnc4C(F)(F)F)C3)cnc21 [Compound 288a]
4. CCc1noc(CNC(=O)N2CCC(COc3ccc(OC)cc3)CC2)n1 [Compound 436]
5. O=C(CCCc1ccccc1)N1CCC(Oc2ccc(C(F)(F)F)cn2)CC1 [Compound 386]
6. O=C(c1ccc2cc[nH]c2c1)N1C[C@@H]2[C@@H](COc3cccnc3C(F)(F)F)[C@@H]2C1 [Compound 109]
7. O=C(c1ccc2cc[nH]c2c1)N1CCC(Oc2ccc(C(F)(F)F)nc2)CC1 [Compound 314]
8. CN(CC1CCCN(c2cnc3cnn(CC(F)F)c3n2)C1)c1cccc(C(F)(F)F)n1 (stereo not shown) [Compound 239]

-- reply
1: < 10 µM; 2: 10 to 50 µM; 3: < 10 µM; 4: > 100 µM; 5: 10 to 50 µM; 6: 10 to 50 µM; 7: 50 to 100 µM; 8: 10 to 50 µM

Hey, just so you know, these numbers are from patent US20240262832A1.
